Measured PET hydrolysis, listed per entry for reference.
assay: PET hydrolysis, aromatic products released after 48 h (umol product/mg enzyme); higher = more PET depolymerization activity; details: substrate: cryPow; 40 °C; pH 5.5
MEASURED_PROPERTY: PET hydrolysis

{"CHAIN_SEQUENCE": "ADNPYQRGPAPTNTSIEATRGTYAVSTKTISALSARGFGGGTIYYPTSTADGTFGVVAISPGYTASQSTIAWLGPRLASFGFVVVTIDTTTRYDQPTSRGSQLLAALDQAIGDSTVGPRIDATRQAVVGHSMGGGGTLEAAKTRRSLEAAVPLTGWNLDKTWPEVEAATLVIGAQNDTVAPTTSHSIPFYNSLSGAERKAYLELRGASHFAPVTSNTTIAKHTLSWLKRYVDDDTRYEQFISPGPSTAIGSPVSDYRVN [DP022]", "MEASURED_PROPERTY": "PET hydrolysis", "REPORTED": "< 3"}
{"CHAIN_SEQUENCE": "AANPYERGPDPTDAILEAARGPFETSRTEVPALSVTGFGGGTIYYPATTSAGTFGGVAVAPGYTADRTSLAWLAERLASHGFVVFNIDTLTRLDQPDSRGRQLLAALDYLTQRSSVRGRLDAGRLGVMGHSMGGGGTLEAARDRPSLQAAVPLTPWDLTKIWSGVRVPTMIVGAEADTIAPVASHAEPFYQSLPSSPGKAYLELNNATHFAPNVPDTTIGKYVVAWMKRFVDDDTRYTRFLCPGPSGGLTVEEYRSTCPFS [TEP194]", "MEASURED_PROPERTY": "PET hydrolysis", "REPORTED": 8.5}
{"CHAIN_SEQUENCE": "QSNPYERGPAPTESSIEATRGSFSVSDKNVSSFSASGFGGGTIYYPTDTSQGTFGGVAISPGFTAGESSIAWLGPRIASQGFVVITIDTNSRYDQPNSRADQLQAALDHIVADSTVGSRIDPNRLAVMGHSMGGGGSLKAAEDNADLQAAVPLQPWHTQKNWSDVEVPTLIIGAENDSVASVTTHSKPFYTSLPDDLDKAYLELDGASHFVSNTPDTTTAKYSISWLKRFVDDDTRYEQFLCPAPDDRTISEYRDTCPHSGGGGTTPTTTPTTLPPDDDCAWWQWWC [DP057]", "MEASURED_PROPERTY": "PET hydrolysis", "REPORTED": "< 3"}

====

experiment: PET hydrolysis, aromatic products released after 48 h (umol product/mg enzyme); higher = more PET depolymerization activity; conditions: substrate: aFilm; 60 °C; pH 5.5

{"CHAIN_SEQUENCE": "MSNPYQRGPNPTRSALTADGPFSVATYTVSRLSVSGFGGGVIYYPTGTSLTFGGIAMSPGYTADASSLAWLGRRLASHGFVVLVINTNSRFDGPDSRASQLSAALNYLRTSSPSAVRARLDANRLAVAGHSMGGGGTLRIAEQNPSLKAAVPLTPWHTDKTFNTSVPVLIVGAEADTVAPVSQHAIPFYQNLPSTTPKVYVELCNASHIAPNSNNAAISVYTISWMKLWVDNDTRYRQFLCNVNDPALCDFRTNNRHCQLEHHHHHH [LCC-ICCG]", "PET hydrolysis": 448}
{"CHAIN_SEQUENCE": "QSAEASPPHGPDPTEESITAPRGPFEIDQKTVSRASVRGFGGGTIYYPTDTSEGTFSAVAIAPGYTAGQESLAWLGPRLASQGFVVFTIDTLTRYDQPDSRSRQLLAALDHLTDDSDVADRVDPARRGVMGHSMGGGGSLQAALDDPDLKAAIPMTPWHTTKDFSGVRTPTLIIGAQNDTVAPVSQHAKPFYESLPDDPGKAYLELAGASHFAPNVDNTTIARYSIAWLKRFLDDDTRYEQFLCPPPPDPAISDHQSTCPY [TEP105]", "PET hydrolysis": "< 3"}
{"CHAIN_SEQUENCE": "APPARVAALATTAYQRGPAPTLSGVRAALGPFSYSTASVSAAATGYTFGGGTVYYPDDTSQGTFGGIAVTPGYTGTEGSIAWLGPRLASQGFVVITIATKSLYDQPTARGQQLLAALDYLKTYSPAAVRQRLDPQRLAVSGHSMGGGGALYAVWSRPSLKAAVPLAPYHTIKNWSAITVPTLIEAGTADTVTPVGTFAEPIYQSLTGASERAYAEVAGANHLTFTAENPLIGGLEVAWMKRFVDDDARYDQFLCPAPTDPGLTEYRDSCPTS [TEP101]", "PET hydrolysis": "< 3"}
